Ref: patent US20160002217A1

# Test system: Phytophthora infestans
# Assay type: in vivo
# RUN CONDITIONS: tomato plants, preventive spray, 500 ppm of active ingredient, evaluated 5 days after inoculation
OBSERVATION TYPE: % efficacy (%)

SMILES REPR	DATA VALUE
CCCCCC(=O)Nc1cccc(CON=C(c2cccnc2)c2nc(=O)on2C)n1	75
CCCCCOC(=O)Nc1cccc(CON=C(c2cccnc2)c2nc(=O)on2C)n1	92
CCCCCOC(=O)Nc1cccc(CON=C(c2ccccn2)c2noc(=O)n2C)n1	85
Cn1c(C(=NOCc2csc(NC(=O)OC(C)(C)C)n2)c2cccs2)noc1=O	93
Cn1c(C(=NOCc2cccc(NC(=O)OC(C)(C)C)n2)c2ccncc2)noc1=O	100
CCCCC(=O)Nc1cccc(CON=C(c2ccncc2)c2noc(=O)n2C)n1	100
CCCCCC(=O)Nc1cccc(CON=C(c2ccncc2)c2noc(=O)n2C)n1	100
CCCCOC(=O)Nc1cccc(CON=C(c2cccnc2)c2nc(=O)on2C)n1	95
CCCCCC(=O)Nc1cccc(CON=C(c2ncccn2)c2noc(=O)n2C)n1	90

---

Recorded LogP by entry
# RUN CONDITIONS: pH 2.7
Marks after values point to notes of the source that are not given here.

COMPOUND	LogP
Cn1c(C(=NOCc2csc(NC(=O)OC(C)(C)C)n2)c2ccsc2)noc1=O	3.39^[a]
CCCCCC(=O)Nc1cccc(CON=C(c2ccccn2)c2nc(=O)on2CC)n1	2.84^[a]
CCCCC(=O)Nc1cccc(CON=C(c2ccncc2)c2noc(=O)n2C)n1	2.34^[a]
C#CCCOC(=O)Nc1cccc(CON=C(c2cccnc2)c2nc(=O)on2C)n1	1.88^[a]
CC(C)(C)OC(=O)N(COCC[Si](C)(C)C)c1nc(CON=C(c2ccsc2)c2noc(=O)[nH]2)cs1	5.45^[a]
CC(C)(C)OC(=O)Nc1cccc(CON=C(C#N)c2ccncc2)n1	3.05^[a]
CCCCCC(=O)Nc1cccc(CON=C(c2ncccn2)c2noc(=O)n2C)n1	2.61^[a]
C#CCCOC(=O)Nc1cccc(CON=C(c2ccccn2)c2noc(=O)n2C)n1	2.56^[a]
CN(C(=O)OC(C)(C)C)c1nc(CON=C(c2cccs2)c2noc(=O)n2C)cs1	4.24^[a]
CCCCCC(=O)Nc1nc(CON=C(c2ccsc2)c2noc(=O)n2C)cs1	3.43^[a]
CCCCCOC(=O)Nc1cccc(CON=C(c2cccnc2)c2nc(=O)on2C)n1	2.84^[a]
CCOC(=O)c1nc(CON=C(C(N)=NO)c2ccsc2)cs1	1.70^[a]
Cn1c(C(=NOCc2cccc(NC(=O)OC(C)(C)C)n2)c2ncccn2)noc1=O (single isomer, unassigned) [Example 27]	2.66^[a][b]
CC(C)(C)OC(=O)Nc1nc(CON=C(c2ccsc2)c2noc(=O)[nH]2)cs1	3.20^[a]
CCCCCC(=O)Nc1cccc(CON=C(c2ccccn2)c2noc(=O)n2C)n1	3.13^[a]
CCCCOC(=O)Nc1cccc(CON=C(c2ccncc2)c2noc(=O)n2C)n1	2.80^[a]
Cn1c(C(=NOCc2csc(NC(=O)C3CCc4ccccc4O3)n2)c2ccsc2)noc1=O (centres unmarked)	3.62^[a]

---

# RUN CONDITIONS: pH 2.7
Marks after values point to notes of the source that are not given here.
OBSERVATION TYPE: LogP

MOLECULE	DATA VALUE
CCCCCC(=O)Nc1cccc(CON=C(c2ccncc2)c2noc(=O)n2C)n1	2.71^[a]
CCCCCOC(=O)Nc1cccc(CON=C(c2ccccn2)c2noc(=O)n2C)n1	3.67^[a]
CCCCC(=O)Nc1cccc(CON=C(c2cccnc2)c2nc(=O)on2C)n1	2.04^[a]
CC(C)(C)OC(=O)Nc1nc(CON=C(C#N)c2ccsc2)cs1	3.62^[a]
CCCC(C)C(=O)Nc1nc(CON=C(c2ccsc2)c2noc(=O)n2C)cs1 (stereo not drawn)	3.39^[a]
Cn1c(C(=NOCc2cccc(NC(=O)OC(C)(C)C)n2)c2ccncc2)noc1=O	2.75^[a]
Cn1oc(=O)nc1C(=NOCc1cccc(NC(=O)OC(C)(C)C)n1)c1ccncc1	2.21^[a]
CCCCCOC(=O)Nc1cccc(CON=C(c2ccccn2)c2nc(=O)on2CC)n1	3.42^[a]
CC(C)(C)OC(=O)Nc1cccc(CON=C(C#N)c2ncccn2)n1	2.82^[a]
